The reported measurements were obtained from BigSolDB 2.1.

details: in methyl acetate, 313.15 K
recorded endpoint: solubility (mole fraction)

Suppose we examine the compound CC(C)C(=O)Nc1ccc([N+](=O)[O-])c(C(F)(F)F)c1 ; what solubility (mole fraction) value has been reported?
0.35

====

conditions: in acetone, 303.15 K
recorded endpoint: solubility (mole fraction)

Look up solubility (mole fraction) for this molecule: CC(C)C(=O)Nc1ccc([N+](=O)[O-])c(C(F)(F)F)c1
0.327

====

conditions: in ethanol, 318.15 K
recorded endpoint: solubility (mole fraction)
No unit in the answer, only the number.

Requested read-out: solubility (mole fraction). Entry: CC(C)C(=O)Nc1ccc([N+](=O)[O-])c(C(F)(F)F)c1
0.133
